target: Replicative DNA helicase DnaB (Mycobacterium tuberculosis); test: DnaB intein splicing inhibitors, dose response, biochemical, cell-free fluorescence (AID 449749); format: functional
Activity calls are given as the source filed them.
In this exercise, the only acceptable responses are active, inactive

Solved cases below.
compound=COc1cc(NC(=O)Cn2ncc(Cl)c(Cl)c2=O)c(C)cc1[N+](=O)[O-] group_label=active
compound=CN1CCN(C2=C(Cl)C(=O)N(c3ccc(Cl)c(Cl)c3)C2=O)CC1 group_label=active
compound=Nc1ccc(Nc2ccccc2N)cc1 group_label=active
compound="CCCc1n[nH]c2c1C(c1cccc(OC(=O)c3ccco3)c1)C(C#N)=C(N)O2 (configuration not stated)" group_label=active
compound=O=C(COC(=O)c1ccc2c(c1Cl)C(=O)c1ccccc1C2=O)NC1CC1 group_label=active
compound=O=C1CCN(S(=O)(=O)c2ccccc2)N1 group_label=active
compound=COc1cc(C(c2c(C)n[nH]c2O)c2c(C)n[nH]c2O)ccc1OS(=O)(=O)c1ccccc1 group_label=active
compound=C#CCOc1ccc(Br)cc1C(c1c(C)n[nH]c1O)c1c(C)n[nH]c1O group_label=active
compound=CCOc1ccccc1CNc1ccc(O)cc1 group_label=inactive
compound=Cc1ccccc1NC1=C/C(=N\S(=O)(=O)c2cccs2)c2ccccc2C1=O group_label=inactive

Entry CCOC(=O)c1c(C)oc2c1c1c(c3ccccc32)OCN(CCCC(=O)O)C1 : call = ? inactive

Entry Cc1ccc(C2C(C#N)=C(N)Oc3[nH]nc(C)c32)cc1 (configuration not stated) : call = ? active

---

target: UniProt P41145; assay type: functional
Sequence (P41145 whole entry): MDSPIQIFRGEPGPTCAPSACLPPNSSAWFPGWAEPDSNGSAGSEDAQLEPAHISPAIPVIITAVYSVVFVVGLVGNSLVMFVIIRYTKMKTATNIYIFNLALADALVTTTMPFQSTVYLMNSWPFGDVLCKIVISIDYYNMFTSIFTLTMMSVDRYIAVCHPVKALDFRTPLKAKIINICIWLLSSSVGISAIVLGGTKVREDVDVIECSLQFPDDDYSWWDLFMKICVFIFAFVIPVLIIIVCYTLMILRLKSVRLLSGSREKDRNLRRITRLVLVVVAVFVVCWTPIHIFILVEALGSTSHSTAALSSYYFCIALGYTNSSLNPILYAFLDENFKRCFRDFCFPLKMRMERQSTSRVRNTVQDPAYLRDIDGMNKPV
Reported Endpoint: pEC50
Field pEC50 (float): negative decimal logarithm of the concentration in molar.

What reported pEC50 corresponds to Clc1cccc(CSc2nnc(-c3ccccn3)n2Cc2ccco2)c1 on UniProt P41145? 5.08

---

assay: control 3'UTR Renilla luciferase suppression, dose response, counter-screen for Shn3 inhibitor project, cell-based, Clone20-Shn3RL, cherry-picked (AID 624133); assay type: functional
Activity calls are given as the source filed them.
Reported Endpoint: AC50

Query: AC50; subject: O=C(Nc1ccc(N2CCN(C(=O)c3ccc(Cl)cc3)CC2)cc1)c1ccc2c(c1)OCCO2 7.89 µM (active)

Query: AC50; subject: CCC1CCCCN1C(=O)c1cc(COc2ccc3ncccc3c2)on1 (configuration not stated) 1.15 µM (active)

Query: AC50; subject: CCn1cc(C(=O)NCc2ccco2)c(=O)c2cc(S(=O)(=O)N3CC(C)CC(C)C3)ccc21 (configuration not stated) 1.67 µM (active)

Query: AC50; subject: O=S(=O)(c1ccccc1C(F)(F)F)N1CCN(c2ncnc3sccc23)CC1 9.4 µM (active)

Query: AC50; subject: Cc1ccc(C)c(S(=O)(=O)N2CCN(Cc3ccc(O)c4ncccc34)CC2)c1 1.23 µM (active)

Query: AC50; subject: CCC(=O)NC(C)c1cc(Cl)c2cccnc2c1O (configuration not stated) 1.62 µM (active)

Query: AC50; subject: Cc1cc2cc(CN(CC3CCCO3)C(S)=Nc3ccccc3)c(O)nc2cc1C (configuration not stated) 9.59 µM (active)

---

biological target: Microphthalmia-associated transcription factor (Homo sapiens, UniProt O75030); test: TRPM1 promoter luciferase signal decrease, dose response, MITF inhibitor project, cell-based, SK-MEL-5, cherry-picked, set 3 (AID 493073); assay type: functional
Sequence (O75030 whole entry): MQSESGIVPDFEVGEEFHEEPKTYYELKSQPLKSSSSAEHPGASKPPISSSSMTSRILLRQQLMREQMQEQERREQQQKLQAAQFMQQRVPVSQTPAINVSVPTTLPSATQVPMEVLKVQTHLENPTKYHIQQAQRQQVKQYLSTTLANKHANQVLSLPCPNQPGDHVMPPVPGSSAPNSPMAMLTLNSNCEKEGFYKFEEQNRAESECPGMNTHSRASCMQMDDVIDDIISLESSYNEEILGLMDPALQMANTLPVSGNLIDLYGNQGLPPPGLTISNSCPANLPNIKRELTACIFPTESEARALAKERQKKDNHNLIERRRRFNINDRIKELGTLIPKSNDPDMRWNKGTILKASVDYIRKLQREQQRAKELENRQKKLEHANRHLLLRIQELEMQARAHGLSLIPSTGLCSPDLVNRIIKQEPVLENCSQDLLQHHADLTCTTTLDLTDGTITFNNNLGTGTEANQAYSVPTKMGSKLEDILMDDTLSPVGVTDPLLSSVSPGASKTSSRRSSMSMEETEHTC
The source made the active and inactive calls.
In this exercise, the only acceptable responses are 1 (yes) for active, 0 (no) for inactive

smiles_str=COc1cc(OC)cc(C(=O)N[C@H](C(=O)Nc2nc3ccccc3[nH]2)C(C)C)c1 group_label="1 (yes)"
smiles_str=CN(C)Cc1c(O)ccc2c1O/C(=C\C=C\c1ccccc1)C2=O group_label="0 (no)"
smiles_str=Cn1c(SC2=CS(=O)(=O)c3ccccc32)nc2ccccc21 group_label="1 (yes)"
smiles_str=CCN1CCN(/C=N/c2nc3c(s2)CCCC3)CC1 group_label="1 (yes)"
smiles_str=N#Cc1c(NC(=O)CSc2nnc[nH]2)sc2c1CCCC2 group_label="1 (yes)"
smiles_str=O=C(CCl)N1CCN(S(=O)(=O)c2ccc3c(c2)CCC3)CC1 group_label="1 (yes)"
smiles_str=COc1cnc(-c2ccccn2)nc1NC(C)C group_label="1 (yes)"
smiles_str=COc1cc(C(=O)N/N=C(\c2ccccc2)c2ccccn2)cc(OC)c1OC group_label="1 (yes)"

Entry Cc1ccc(NC(=O)C2CCN(S(=O)(=O)c3c(C)noc3/C=C/c3ccco3)CC2)nc1 : call = ? 1 (yes)

Entry Cc1ccc(C)c(S(=O)(=O)N2CCN(Cc3ccc(O)c4ncccc34)CC2)c1 : call = ? 1 (yes)

---

molecular target: Cytochrome P450 3A4 (Homo sapiens); conditions: Potency;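 further: confirmatory qHTS run detecting inhibitors and substrates of CYP3A4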
Sequence (P08684 whole entry): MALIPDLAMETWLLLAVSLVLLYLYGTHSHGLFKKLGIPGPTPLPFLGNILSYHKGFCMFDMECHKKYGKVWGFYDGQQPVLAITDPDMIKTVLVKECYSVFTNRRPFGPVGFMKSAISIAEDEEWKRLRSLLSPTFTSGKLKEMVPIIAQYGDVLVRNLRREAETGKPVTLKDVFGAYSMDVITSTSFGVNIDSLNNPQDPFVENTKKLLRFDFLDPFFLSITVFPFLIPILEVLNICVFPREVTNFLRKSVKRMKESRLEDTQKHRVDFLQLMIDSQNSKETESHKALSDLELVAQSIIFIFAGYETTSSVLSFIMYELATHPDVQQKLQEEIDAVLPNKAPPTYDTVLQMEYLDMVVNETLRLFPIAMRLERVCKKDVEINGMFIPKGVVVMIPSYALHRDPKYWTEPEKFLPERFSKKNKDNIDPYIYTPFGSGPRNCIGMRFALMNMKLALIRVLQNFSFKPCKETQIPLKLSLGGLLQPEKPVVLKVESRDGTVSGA
Reported Endpoint: AC50

Some entries whose results are on file:
compound=C[C@]12CC[C@@H]3c4ccc(OC(=O)c5ccccc5)cc4CC[C@H]3[C@@H]1CCC2=O result="7.94 µM (inconclusive)"
compound=O=[N+]([O-])c1ccc2c3c(cccc13)CC2 result="31.6 µM (inconclusive)"
compound="CC1=C(C(=O)OCc2ccccc2)C(c2ccc(C3CCCCC3)cc2)NC(=O)N1CCCCCC(=O)O (stereo not given)" result="7.94 µM (inconclusive)"
compound=O=c1cc(-c2ccccc2O)oc2c1ccc1ccccc12 result="15.8 µM (inconclusive)"

What reported AC50 corresponds to Nc1c(Br)cc([N+](=O)[O-])cc1[N+](=O)[O-] on Cytochrome P450 3A4 (Homo sapiens)? 25.1 µM (inconclusive)

---

target: UniProtKB P38532; assay: inhibition of MG132-induced HSE-luciferase signal, confirmation, cell-based, NIH3T3, luminescence, dose retest (AID 2382); assay type: functional;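 further: NIH3T3 fibroblasts with HSF1-driven luciferase reporter stressed by proteasome inhibitor MG132; luminescence from HSF1-driven luciferase expression after 8 hours of MG132 stress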
Sequence (P38532 whole entry): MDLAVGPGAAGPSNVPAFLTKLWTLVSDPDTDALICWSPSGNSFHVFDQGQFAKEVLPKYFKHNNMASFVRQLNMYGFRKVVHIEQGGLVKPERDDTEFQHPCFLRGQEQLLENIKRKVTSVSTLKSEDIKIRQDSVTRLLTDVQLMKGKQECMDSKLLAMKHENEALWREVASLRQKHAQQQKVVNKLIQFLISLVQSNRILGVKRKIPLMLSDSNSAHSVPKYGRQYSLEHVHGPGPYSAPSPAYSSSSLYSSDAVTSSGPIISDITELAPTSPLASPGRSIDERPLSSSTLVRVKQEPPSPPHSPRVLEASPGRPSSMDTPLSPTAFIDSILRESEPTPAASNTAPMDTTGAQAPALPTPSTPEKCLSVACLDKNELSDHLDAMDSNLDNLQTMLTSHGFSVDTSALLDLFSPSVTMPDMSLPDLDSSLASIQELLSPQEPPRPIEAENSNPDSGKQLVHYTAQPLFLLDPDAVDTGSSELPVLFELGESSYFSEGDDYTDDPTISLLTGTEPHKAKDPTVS
The source made the active and inactive calls.
Reported Endpoint: EC50

compound=COc1cccc(-n2c(N)c(-c3nc4ccccc4[nH]3)sc2=S)c1 result="> 195 µM (not active)"
compound=COc1cc(NC(=O)Cn2ncc(Cl)c(Cl)c2=O)c(C)cc1[N+](=O)[O-] result="4.33 µM (active)"

Query: EC50; subject: Cc1cc(Cl)ccc1OC(C)C(=O)NC(C)C1CCCO1 (stereo unspecified) > 195 µM (not active)

Query: EC50; subject: Cc1cccc(NCc2ccc(O)c3ncccc23)c1C > 195 µM (not active)

Query: EC50; subject: Cc1nc2c(ncn2-c2ccccc2)c(=O)n1NC(=O)CN1CCOCC1 > 195 µM (not active)

Query: EC50; subject: CCN1CCN(/C=N/c2nc3c(s2)CCCC3)CC1 < 0.16 µM (active)

---

Measured IC50 values are reported for all entries that follow.
biological target: Polyadenylate-binding protein 1 (Homo sapiens); test: PABP1 MLLE–PAM2 interaction inhibitors, dose response, miRNA deadenylation inhibitor project, biochemical, fluorescence polarization, Cy5-PAM2 peptide, secondary (AID 602260); assay type: functional; conditions: read-out: IC50_Mean
Sequence (P11940 whole entry): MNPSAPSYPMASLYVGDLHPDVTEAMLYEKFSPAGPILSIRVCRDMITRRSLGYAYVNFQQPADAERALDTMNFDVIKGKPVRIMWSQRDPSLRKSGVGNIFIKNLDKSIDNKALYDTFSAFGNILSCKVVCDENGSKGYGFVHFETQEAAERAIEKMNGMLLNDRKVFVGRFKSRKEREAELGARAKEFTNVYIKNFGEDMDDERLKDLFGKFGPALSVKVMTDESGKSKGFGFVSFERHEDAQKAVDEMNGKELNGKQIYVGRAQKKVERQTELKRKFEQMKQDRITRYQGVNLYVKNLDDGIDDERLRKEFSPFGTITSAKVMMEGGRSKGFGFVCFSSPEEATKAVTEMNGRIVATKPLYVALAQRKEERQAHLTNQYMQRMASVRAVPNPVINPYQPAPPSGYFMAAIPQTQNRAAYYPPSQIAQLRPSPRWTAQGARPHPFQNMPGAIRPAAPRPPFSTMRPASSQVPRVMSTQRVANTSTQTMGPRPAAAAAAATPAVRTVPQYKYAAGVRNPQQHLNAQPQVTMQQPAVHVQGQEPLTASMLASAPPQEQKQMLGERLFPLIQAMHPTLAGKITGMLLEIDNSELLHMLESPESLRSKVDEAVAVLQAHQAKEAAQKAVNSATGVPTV
Calls of active or inactive are those of the source.

Some entries whose results are on file:
molecule="COc1ccc(C2=CC(c3ccc(F)cc3)n3nnnc3N2)cc1 (stereo not drawn)" test_target="Polyadenylate-binding protein 1 (Homo sapiens)" reported_endpoint=IC50 result="> 66 µM (inactive)"
molecule="c1ccc(COC2CCCN(Cc3nc(-c4cccs4)no3)C2)nc1 (stereo not drawn)" test_target="Polyadenylate-binding protein 1 (Homo sapiens)" reported_endpoint=IC50 result="> 66 µM (inactive)"

What reported IC50 corresponds to O=C(NC(=S)NNC(=O)c1ccccc1O)c1ccc([N+](=O)[O-])cc1 on Polyadenylate-binding protein 1 (Homo sapiens)? > 66 µM (inactive)

---

Measured EC50 values are reported for all entries that follow.
test: growth suppression of PTEN-null colon cells, dose response, cell-based, HCT116 PTEN knockout (AID 1047); assay type: functional;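 further: HCT116 colon tumor cells with PTEN knocked out; cells exposed to compound for 60 hours before readout; potency for loss of cell viability measured by luminescence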
The source made the active and inactive calls.

smiles_str=Cn1c(SC2=CS(=O)(=O)c3ccccc32)nc2ccccc21 reported_endpoint=EC50 result="2.87 µM (active)"

Query: EC50; subject: Cc1ccc(C)c(C(=O)COc2ccccc2[N+](=O)[O-])c1 10.2 µM (active)

Query: EC50; subject: CCOC(=O)N1CCc2c(sc(NC(=O)c3ccc(Cl)s3)c2C(N)=O)C1 15.7 µM (active)

Query: EC50; subject: O=S1(=O)C=C(Sc2nnc(-c3ccccc3)o2)c2ccccc21 2.38 µM (active)

---

target: Corticotropin-releasing factor receptor 2/Corticotropin-releasing factor-binding protein (Homo sapiens, UniProt P24387+Q13324); test: activators of CRF receptor 2 with binding protein – uHTS hits, confirmation (AID 602473); type: functional; conditions: read-out: EC50_Mean
Sequence (Q13324 whole entry): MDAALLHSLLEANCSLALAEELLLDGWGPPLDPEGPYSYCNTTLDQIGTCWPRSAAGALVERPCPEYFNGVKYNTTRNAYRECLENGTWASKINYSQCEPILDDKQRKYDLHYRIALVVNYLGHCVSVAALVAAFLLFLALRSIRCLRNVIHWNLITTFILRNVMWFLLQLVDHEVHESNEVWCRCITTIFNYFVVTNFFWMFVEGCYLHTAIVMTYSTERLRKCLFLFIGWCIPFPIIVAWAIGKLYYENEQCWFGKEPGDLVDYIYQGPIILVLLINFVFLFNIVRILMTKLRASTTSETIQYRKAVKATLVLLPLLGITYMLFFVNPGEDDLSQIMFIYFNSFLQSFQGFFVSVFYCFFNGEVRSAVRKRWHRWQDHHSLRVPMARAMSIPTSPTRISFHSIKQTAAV
Sequence (P24387 whole entry): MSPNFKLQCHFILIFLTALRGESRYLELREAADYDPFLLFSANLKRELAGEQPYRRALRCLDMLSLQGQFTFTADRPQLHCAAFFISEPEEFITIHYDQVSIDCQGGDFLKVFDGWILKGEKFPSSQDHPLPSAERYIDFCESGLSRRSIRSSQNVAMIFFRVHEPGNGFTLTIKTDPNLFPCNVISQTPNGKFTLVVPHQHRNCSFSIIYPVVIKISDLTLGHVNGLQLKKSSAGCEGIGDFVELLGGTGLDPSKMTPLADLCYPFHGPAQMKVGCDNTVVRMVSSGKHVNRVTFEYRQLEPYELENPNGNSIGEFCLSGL
Calls of active or inactive are those of the source.
In this exercise, the only acceptable responses are yes (1) = active, no (0) = inactive

Solved cases below.
compound=O=C(C[C@H]1C[C@@H]2c3cc(NS(=O)(=O)c4ccccc4)ccc3O[C@@H]2[C@H](CO)O1)N1CCOCC1 group_label="no (0)"
compound="C[C@]12CCC(O)CC1CCC1C2CC[C@]2(C)C(c3cc(C(F)(F)F)n[nH]3)CCC12 (stereo not given in full)" group_label="yes (1)"
compound=O=C(c1cc2nc(-c3ccc(F)cc3)cc(C(F)(F)F)n2n1)N1CCOCC1 group_label="no (0)"

Entry CC(C)N(CCn1c(=S)[nH]c2ccccc2c1=O)C(C)C : call = ? yes (1)

Entry COc1cccc(CN2CCN(Cc3cc(OC)c(OC)cc3[N+](=O)[O-])CC2)c1.O=C(O)C(=O)O : call = ? no (0)

Entry CC(=O)c1cc(C#N)c(Oc2ccc(Cl)cc2Cl)nc1C : call = ? no (0)

Entry C=CCN1C(=O)c2cccc3c(N4CCCCC4)ccc(c23)C1=O : call = ? yes (1)

Entry Cc1ccccc1Nc1nc(N)nc(COC(=O)c2cccc(S(=O)(=O)N(C)c3ccccc3)c2)n1 : call = ? no (0)

Entry CC1CCN(c2ccc3c(c2)S(=O)(=O)c2cccc(C(=O)NCc4ccc(F)cc4)c2C3=O)CC1 : call = ? yes (1)

Entry Cc1ccc[n+](-c2[n-]c(=O)sc2C=O)c1 : call = ? yes (1)
